Test: LC-MS/MS analysis of synthetic-positive patient samples
Type: in vivo
Settings: population of positive patient samples
The following compounds are listed with their measured Range of steroid concentration in synthetic positive patient samples values.

| COMPOUND | ASSAY_RESULT |
| --- | --- |
| C[C@]12C=CC(=O)C=C1CC[C@@H]1[C@@H]2C(=O)C[C@@]2(C)[C@H]1CC[C@]2(O)C(=O)CO [SYN-2, Prednisone] | 1.9 to 72 ng/mL |

query: Would you mind telling me what Range of steroid concentration in synthetic positive patient samples value was observed for CC1(C)O[C@@H]2C[C@H]3[C@@H]4CCC5=CC(=O)C=C[C@]5(C)[C@@]4(F)[C@@H](O)C[C@]3(C)[C@]2(C(=O)CO)O1 [SYN-3, Triamcinolone acetonide] ?
result: 0.3 to 2.3 ng/mL

query: Entry to check: C[C@@H]1C[C@H]2[C@@H]3CCC4=CC(=O)C=C[C@]4(C)[C@@]3(F)[C@@H](O)C[C@]2(C)[C@@]1(O)C(=O)CO [SYN-10, Dexamethasone]
result: 1.0 to 14.0 ng/mL

query: Entry to check: C[C@H]1C[C@@H]2[C@H]([C@@H](O)C[C@@]3(C)[C@H]2CC[C@]3(O)C(=O)CO)[C@@]2(C)C=CC(=O)C=C12 [SYN-1, 6-a-methyl prednisolone]
result: 1.7 to 130 ng/mL

query: Entry to check: C[C@]12C=CC(=O)C=C1CC[C@@H]1[C@@H]2[C@@H](O)C[C@@]2(C)[C@H]1CC[C@]2(O)C(=O)CO [SYN-7, Prednisolone]
result: 0.6 to 640 ng/mL
